Cited source: PubChem BioAssay AID1963845

- Tested on: 429239-143-T-J1-PDC complex spheroid viability;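 further: luminescence signal used as surrogate measure of viable cells; spheroids exposed to compounds for seven days before readout; 100% = DMSO vehicle control viability as luminescence relative to vehicle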
- measurement-notes: Anticancer human tumor 429239-143-T-J1-PDC patient-derived small cell lung carcinoma cell line growth inhibition [POLQ]
- protocol-conditions: second compound 0.0316 µM; first compound 0.1 µM; stronger effect = lower value
value-type: viability, T/C

compound="CC1COCCN1c1cc(C2(O)CC3CCC(C2)O3)c2cnn(-c3ccn[nH]3)c2n1 (stereo not given) + Cc1cccc(N(C)C(=O)C2C(O)CCN2c2nc(C)cc(C(F)(F)F)c2C#N)c1" target_system="429239-143-T-J1-PDC complex spheroid viability" value_reported=35.8%
compound="CCc1cc2c(N3CCc4c(cc(Cn5ccnc5)cc4-c4cn(C)nc4C(F)(F)F)C3=O)ccnc2c(OC)n1 + Cc1cccc(N(C)C(=O)C2C(O)CCN2c2nc(C)cc(C(F)(F)F)c2C#N)c1" target_system="429239-143-T-J1-PDC complex spheroid viability" value_reported=102%
compound="Cn1ncnc1[C@H]1c2n[nH]c(=O)c3cc(F)cc(c23)N[C@@H]1c1ccc(F)cc1 + Nc1ccc(C#CCN(C(=O)Cc2ncc(C(F)(F)F)cc2C(F)(F)F)c2ccc(F)cc2)nn1" target_system="429239-143-T-J1-PDC complex spheroid viability" value_reported=60.8%
compound="O=C(Nc1ccc(O)c(NS(=O)(=O)c2ccc(F)cc2)c1)c1ccc(-c2ccccc2)cc1 + COC1C(OC(N)=O)C(O)C(Oc2ccc3c(O)c(NC(=O)c4ccc(O)c(CC=C(C)C)c4)c(=O)oc3c2C)OC1(C)C" target_system="429239-143-T-J1-PDC complex spheroid viability" value_reported=97.1%
compound="COc1cccc2c1C(=O)c1c(O)c3c(c(O)c1C2=O)CC(O)(C(=O)CO)CC3OC1CC(N)C(O)C(C)O1 (stereo not given) + Nc1ccc(C#CCN(C(=O)Cc2ncc(C(F)(F)F)cc2C(F)(F)F)c2ccc(F)cc2)nn1" target_system="429239-143-T-J1-PDC complex spheroid viability" value_reported=38.8%
compound="CC(C)n1c(=O)n(C)c2cnc3cc(F)c(-c4ccc(OCCCN5CCCCC5)nc4)cc3c21 + Nc1ccc(C#CCN(C(=O)Cc2ncc(C(F)(F)F)cc2C(F)(F)F)c2ccc(F)cc2)nn1" target_system="429239-143-T-J1-PDC complex spheroid viability" value_reported=107%
compound="COc1ccc([C@@H](O)c2cc(-c3ncnc4cc(N5CCOCC5)ccc34)c(F)cc2Cl)nn1 + Nc1ccc(C#CCN(C(=O)Cc2ncc(C(F)(F)F)cc2C(F)(F)F)c2ccc(F)cc2)nn1" target_system="429239-143-T-J1-PDC complex spheroid viability" value_reported=103%
compound="CC1COCCN1c1cc(-c2ccnn2C)c2ccnc(-c3ccn[nH]3)c2n1 (stereo not given) + Cc1cccc(N(C)C(=O)C2C(O)CCN2c2nc(C)cc(C(F)(F)F)c2C#N)c1" target_system="429239-143-T-J1-PDC complex spheroid viability" value_reported=54.9%
compound="C#Cc1c(F)ccc2cc(O)cc(-c3ncc4c(N5CC6CCC(C5)N6)nc(OCC56CCCN5CC(F)C6)nc4c3F)c12 (stereo not given) + COC1C(OC(N)=O)C(O)C(Oc2ccc3c(O)c(NC(=O)c4ccc(O)c(CC=C(C)C)c4)c(=O)oc3c2C)OC1(C)C" target_system="429239-143-T-J1-PDC complex spheroid viability" value_reported=92.7%
compound="C=CCn1c(=O)c2cnc(Nc3ccc(N4CCN(C)CC4)cc3)nc2n1-c1cccc(C(C)(C)O)n1 + Nc1ccc(C#CCN(C(=O)Cc2ncc(C(F)(F)F)cc2C(F)(F)F)c2ccc(F)cc2)nn1" target_system="429239-143-T-J1-PDC complex spheroid viability" value_reported=101%
compound="CC[C@@]1(O)C(=O)OCc2c1cc1n(c2=O)Cc2cc3c(CN(C)C)c(O)ccc3nc2-1 + Nc1ccc(C#CCN(C(=O)Cc2ncc(C(F)(F)F)cc2C(F)(F)F)c2ccc(F)cc2)nn1" target_system="429239-143-T-J1-PDC complex spheroid viability" value_reported=5.15%
compound="Cn1ncnc1[C@H]1c2n[nH]c(=O)c3cc(F)cc(c23)N[C@@H]1c1ccc(F)cc1 + COC1C(OC(N)=O)C(O)C(Oc2ccc3c(O)c(NC(=O)c4ccc(O)c(CC=C(C)C)c4)c(=O)oc3c2C)OC1(C)C" target_system="429239-143-T-J1-PDC complex spheroid viability" value_reported=27.8%
compound="COc1cccc(OCCCN)c1-c1cc(Nc2cnc(C#N)cn2)n[nH]1 + Cc1cccc(N(C)C(=O)C2C(O)CCN2c2nc(C)cc(C(F)(F)F)c2C#N)c1" target_system="429239-143-T-J1-PDC complex spheroid viability" value_reported=73.1%
compound="Nc1ccn(C2OC(CO)C(O)C2(F)F)c(=O)n1 (stereo not given) + Nc1ccc(C#CCN(C(=O)Cc2ncc(C(F)(F)F)cc2C(F)(F)F)c2ccc(F)cc2)nn1" target_system="429239-143-T-J1-PDC complex spheroid viability" value_reported=7.33%
compound="CC1COCCN1c1cc(C2(S(C)(=N)=O)CC2)nc(-c2ccnc3[nH]ccc23)n1 (stereo not given) + Nc1ccc(C#CCN(C(=O)Cc2ncc(C(F)(F)F)cc2C(F)(F)F)c2ccc(F)cc2)nn1" target_system="429239-143-T-J1-PDC complex spheroid viability" value_reported=105%
compound="CC1COCCN1c1cc(C2(S(C)(=N)=O)CC2)nc(-c2ccnc3[nH]ccc23)n1 (stereo not given) + Cc1cccc(N(C)C(=O)C2C(O)CCN2c2nc(C)cc(C(F)(F)F)c2C#N)c1" target_system="429239-143-T-J1-PDC complex spheroid viability" value_reported=105%
compound="C#Cc1c(F)ccc2cc(O)cc(-c3ncc4c(N5CC6CCC(C5)N6)nc(OCC56CCCN5CC(F)C6)nc4c3F)c12 (stereo not given) + Cc1cccc(N(C)C(=O)C2C(O)CCN2c2nc(C)cc(C(F)(F)F)c2C#N)c1" target_system="429239-143-T-J1-PDC complex spheroid viability" value_reported=92.4%
compound="CC1COCCN1c1cc(C2(O)CC3CCC(C2)O3)c2cnn(-c3ccn[nH]3)c2n1 (stereo not given) + COC1C(OC(N)=O)C(O)C(Oc2ccc3c(O)c(NC(=O)c4ccc(O)c(CC=C(C)C)c4)c(=O)oc3c2C)OC1(C)C" target_system="429239-143-T-J1-PDC complex spheroid viability" value_reported=32.4%
compound="CCc1cc2c(N3CCc4c(cc(Cn5ccnc5)cc4-c4cn(C)nc4C(F)(F)F)C3=O)ccnc2c(OC)n1 + Nc1ccc(C#CCN(C(=O)Cc2ncc(C(F)(F)F)cc2C(F)(F)F)c2ccc(F)cc2)nn1" target_system="429239-143-T-J1-PDC complex spheroid viability" value_reported=94.9%
compound="C#Cc1c(F)ccc2cc(O)cc(-c3ncc4c(N5CC6CCC(C5)N6)nc(OCC56CCCN5CC(F)C6)nc4c3F)c12 (stereo not given) + Nc1ccc(C#CCN(C(=O)Cc2ncc(C(F)(F)F)cc2C(F)(F)F)c2ccc(F)cc2)nn1" target_system="429239-143-T-J1-PDC complex spheroid viability" value_reported=106%
